Listed here are compounds together with their documented growth inhibition.
- PROTOCOL NOTES: NCI Yeast Anticancer Drug Screen. Data for the mec2-1 strain (AID 157)
- EXPERIMENTAL SETUP: S. cerevisiae mec2-1 strain, at 50.0 µM (retest, dose inferred, filed as 5.0), hits give high values
This is part of a sample that, as a whole, favours compounds with a hit. Of some 79,000 tested, about 15% had one in any assay. Where a SMILES comes first, the peptide text is derived from it. The star is where a group is joined. Boc = CC(C)(C)OC(=O)*; OBn = c1ccc(CO*)cc1; Bn = c1ccc(C*)cc1
ASSAY READOUT: growth inhibition (%)

compound="CC(C)CC(NC(=O)C(Cc1ccccc1)NC(=O)C(COCc1ccccc1)NC(=O)OC(C)(C)C)C(=O)OCc1ccccc1 (stereo not drawn) (Boc-Ser(Bn)-Phe-Leu-OBn; configuration not given here)" readout_units=% value_reported=15
compound="COc1ccccc1NC(=O)CC(=O)N1N=C(C)C(N=Nc2ccc(C(=O)O)cc2)C1=O (stereo not given)" readout_units=% value_reported=-2
compound=CCOC(=O)N1CCN(c2cc(C)nc3cc(OC)ccc23)CC1 readout_units=% value_reported=1
compound="O=C(O)c1c2c(cc3c1CC1(Cc4cc5c(cc4C1=O)CCC5)C3)CCC2 (stereo not given)" readout_units=% value_reported=58
compound=CC1=C(/C=C/C(C)=N/NC(N)=S)C(C)(C)CCC1 readout_units=% value_reported=88
compound=CCOC(=O)/C=C(\C)OCC readout_units=% value_reported=2
compound=CNC(=O)N/N=C/c1ccc([N+](=O)[O-])o1 readout_units=% value_reported=22
compound="OC(CCl)COc1c(Cl)c(Cl)c(Cl)c(Cl)c1Cl (stereo not given)" readout_units=% value_reported=10
compound="COc1cc(C(c2cc3c(cc2O)OCO3)N2CCCCC2)cc(OC)c1OC (stereo not given)" readout_units=% value_reported=20
compound="COC1(CO)C(=O)N(C)CC(=O)N1C (stereo not given)" readout_units=% value_reported=99
compound=CCCCc1ccc2nc(C)cc(N/N=C/c3ccc4c(c3)OCO4)c2c1 readout_units=% value_reported=19
compound=CCN(CC)c1ccc(N=Nc2ccc(-c3nc4cccn(C)c-4n3)cc2)cc1 readout_units=% value_reported=-5
compound=CCS(=O)(=O)/C=C(\C#Cc1ccccc1)c1ccccc1 readout_units=% value_reported=95
compound="CCCCOP(=O)(OCCCC)C(NS(=O)(=O)c1ccccc1)(C(=O)OCC)C(F)(F)F (stereo not given)" readout_units=% value_reported=28
compound=COC(=O)c1cc(C)c2sc3ccccc3c2c1C readout_units=% value_reported=23
compound=N#CSCc1ccc(Cl)c(CSC#N)c1 readout_units=% value_reported=99
compound="Cc1cccc(C)c1N1C(=O)C(=O)C(c2nc3ccccc3s2)/C(=N/NC(=O)c2ccccc2O)C1=O (stereo not given)" readout_units=% value_reported=16
compound=O=C1c2ccccc2C(=O)N1c1ccccc1 readout_units=% value_reported=-1
compound=O=Nc1cc(-c2ccccc2)c2ccccc2c1O readout_units=% value_reported=96
compound=CC(=O)OCc1ccc(O)c2ncccc12 readout_units=% value_reported=83

----------
- PROTOCOL NOTES: NCI Yeast Anticancer Drug Screen. Data for the cln2 rad14 strain (AID 165);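 also: 0% = growth equal to vehicle treated cultures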
- EXPERIMENTAL SETUP: S. cerevisiae cln2 rad14 strain, at 50.0 µM, hits give high values
The panel holds about 79,000 compounds, 15% with a hit somewhere; the sample as a whole holds those more often. The source made the active and inactive calls. No stated cut-off is given here; in the data, active means growth inhibition above about 70%; inactive means the rest.
ASSAY READOUT: growth inhibition

compound=CCN(CC)Cc1c(-c2ccccc2)oc(-c2ccccc2)c1CN(CC)CC value_reported="-9.8% (inactive)"
compound="CNC(Cc1ccccc1)c1ccc(OC)c2ccccc12 (stereo not drawn)" value_reported="7.7% (inactive)"
compound=O=C1C(c2ccccc2)=[N+]([O-])c2ccccc21 value_reported="73.5% (active)"

meta.source: PubChem BioAssay (NCI)
